Where do these numbers come from? They come from patent US20260103488A1.

Consider the following binders and their measured Lck activity, percentage relative to control, in vitro kinase assay, peptide 1 µM readings.
biological target: Lck(h) (lymphocyte-specific protein tyrosine kinase) (human, UniProt P06239 1-509, limits assumed); test: cell-based or functional assay
Sequence (P06239 whole entry): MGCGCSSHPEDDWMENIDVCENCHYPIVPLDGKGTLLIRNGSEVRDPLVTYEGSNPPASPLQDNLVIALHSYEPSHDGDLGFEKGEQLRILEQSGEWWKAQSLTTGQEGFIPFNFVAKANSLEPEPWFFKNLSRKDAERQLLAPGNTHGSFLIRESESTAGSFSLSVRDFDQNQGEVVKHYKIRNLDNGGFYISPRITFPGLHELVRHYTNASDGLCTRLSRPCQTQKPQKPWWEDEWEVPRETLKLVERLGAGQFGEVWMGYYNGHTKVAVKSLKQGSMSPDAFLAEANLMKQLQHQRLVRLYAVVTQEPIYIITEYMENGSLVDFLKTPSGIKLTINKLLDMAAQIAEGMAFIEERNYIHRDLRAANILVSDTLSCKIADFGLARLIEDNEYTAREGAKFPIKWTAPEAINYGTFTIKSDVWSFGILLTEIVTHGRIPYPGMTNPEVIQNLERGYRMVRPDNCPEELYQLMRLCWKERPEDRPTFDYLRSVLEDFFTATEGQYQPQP
Where no end group is shown, it is not given here.
measurementName: Lck activity, percentage relative to control, in vitro kinase assay, peptide 1 µM (%)

>  <binder>
RRRRRRRRR-NH2 [RRRRRRRRR (IK00900)]

>  <endpointValue>
325

$$$$
>  <binder>
RSKAKNPLYRRRRRR-NH2 [RSKAKNPLY-RRRRRR (IK14500)]

>  <endpointValue>
82

$$$$
